Source: patent US20200079833A1

Biological target: T1, GLP-1R in the INS1e assay (UniProt P32301 22-463, limits assumed)
T1 sequence (looked up): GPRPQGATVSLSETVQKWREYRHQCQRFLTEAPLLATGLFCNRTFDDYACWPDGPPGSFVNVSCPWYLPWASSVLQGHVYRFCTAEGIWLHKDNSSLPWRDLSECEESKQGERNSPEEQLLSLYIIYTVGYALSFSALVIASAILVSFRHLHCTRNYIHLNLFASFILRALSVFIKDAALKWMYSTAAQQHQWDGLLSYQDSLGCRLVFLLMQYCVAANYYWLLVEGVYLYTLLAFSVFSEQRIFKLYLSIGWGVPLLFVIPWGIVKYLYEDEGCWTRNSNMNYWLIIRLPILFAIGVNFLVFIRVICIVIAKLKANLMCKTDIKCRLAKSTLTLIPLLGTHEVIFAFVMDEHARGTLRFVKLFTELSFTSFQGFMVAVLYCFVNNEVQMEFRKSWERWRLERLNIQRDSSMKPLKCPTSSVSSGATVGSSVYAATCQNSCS
Test: cell-based or functional assay
Starred links: 1 amine or outer side, 2 acyl side, 3 side chain; linkers in the order of their positions; H or OH if unused. Non-standard residues stand in square brackets, D forms with d. Groups on a side chain read outwards from the residue. Primed or numbered codes have the meaning given here. No end group written: not given here. *: point of attachment. γGlu = O=C(O)[C@H](CCC(=O)[*:2])N[*:1]; Stearoyl = CCCCCCCCCCCCCCCCCC(=O)*; Palmitoyl = CCCCCCCCCCCCCCCC(=O)*; αMeF = C[C@](N)(Cc1ccccc1)C(=O)O; αMeK = C[C@](N)(CCCCN)C(=O)O; Lauroyl = CCCCCCCCCCCC(=O)*; αMeS = C[C@](N)(CO)C(=O)O; PEG2′ = not defined here; Aib = CC(C)(N)C(=O)O
property.measured: INS1e assay EC50 (cAMP) n1 (nM)

Here are 5 binders together with their reported answers.
Query: Need INS1e assay EC50 (cAMP) n1 of H[Aib]EGS[αMeF]TSDVSK([PEG2′-PEG2′-γGlu-Palmitoyl])YLEGEAAEEFIK([PEG2′-PEG2′-γGlu-Palmitoyl])WVVEGG-NH2 [SEQ ID NO: 246] , thanks.
Result: 71.3

Query: # get_value(readout='INS1e assay EC50 (cAMP) n1', item= H[Aib]EGS[αMeF]TSDK([PEG2′-PEG2′-γGlu-Lauroyl])SSYLEGEAA[αMeK]EFIAK([PEG2′-PEG2′-γGlu-Lauroyl])VVEGG-NH2 [SEQ ID NO: 257] )
Result: 0.812

Query: Give its INS1e assay EC50 (cAMP) n1 value. Item: H[Aib]EGTFTSDVSK([PEG2′-PEG2′-γGlu-Lauroyl])YLEGEAAEEFIK([PEG2′-PEG2′-γGlu-Lauroyl])FVVEGG-NH2 [SEQ ID NO: 238]
Result: 15

Query: What does the record list as INS1e assay EC50 (cAMP) n1 for H[Aib]EGTFTSDVSK([PEG2′-PEG2′-γGlu-Lauroyl])YLEGEAAEEFIK([PEG2′-PEG2′-γGlu-Lauroyl])WVVEGG-NH2 [SEQ ID NO: 236] ?
Result: 12

Query: Give its INS1e assay EC50 (cAMP) n1 value. Item: H[Aib]EGS[αMeF]TSDV[αMeS]SK([PEG2′-PEG2′-γGlu-Stearoyl])LEGEAA[αMeK]E[αMeF]IAK([PEG2′-PEG2′-γGlu-Stearoyl])VVEGG-NH2 [SEQ ID NO: 410]
Result: 0.698

I. H[Aib]EGTFTSDVSK([PEG2′-PEG2′-γGlu-Lauroyl])FLEGEAAEEFIK([PEG2′-PEG2′-γGlu-Lauroyl])FVVEGG-NH2 [SEQ ID NO: 239]
II. H[Aib]EGS[αMeF]TSDVSK([PEG2′-PEG2′-γGlu-Lauroyl])FLEGEAA[αMeK]EFIK([PEG2′-PEG2′-γGlu-Lauroyl])FVVEGG-NH2 [SEQ ID NO: 248]
Query: Hey, between I and II which has a smaller measured INS1e assay EC50 (cAMP) n1? API: response body contains the label of the selected item.
Result: II

1. H[Aib]EGS[αMeF]TSDVSK([PEG2′-PEG2′-γGlu-Palmitoyl])FLEGEAA[αMeK]EFIK([PEG2′-PEG2′-γGlu-Palmitoyl])FVVEGG-NH2 [SEQ ID NO: 250]
2. H[Aib]EGS[αMeF]TSDVSK([PEG2′-PEG2′-γGlu-Lauroyl])YLEGEAA[αMeK]EFIAK([PEG2′-PEG2′-γGlu-Lauroyl])VVEGG-NH2 [SEQ ID NO: 252]
Query: Quick check, higher INS1e assay EC50 (cAMP) n1 between 1 and 2 ? Lab note: record the label of whichever item you select.
Result: 1
